- measured target: rat CYP2C12, Cyp2c12 (gene 25011)
- test method notes: NVS_ADME_rCYP2C12: NovaScreen (NVS) CYP450-related Enzyme Activity (ADME) Assay for rat CYP2C12 (AID 2283119)
Inconclusive results are not listed. Active and inactive are the calls of the source. The calls were made as follows: active = hit-call score of the fitted dose curve at least 0.9, where 1 is the maximum; inconclusive = response in the unintended direction; inactive = score below 0.9.
readout name: AC50

> print(dat)
                                   compound  readout.name    endpoint.result
1   C[Si](Cn1cncn1)(c1ccc(F)cc1)c1ccc(F)cc1          AC50   4.13 µM (active)
2  FC(F)C(F)(F)OCC(Cn1cncn1)c1ccc(Cl)cc1Cl (stereo not given)          AC50   3.95 µM (active)
3  CSC1=N[C@@](C)(c2ccccc2)C(=O)N1Nc1ccccc1          AC50      8 µM (active)
4   CCOP(=S)(OCC)Oc1ccc2c(C)c(Cl)c(=O)oc2c1          AC50  0.799 µM (active)
5     CCCOCC(=Nc1ccc(Cl)cc1C(F)(F)F)n1ccnc1          AC50   2.46 µM (active)

====

- Read-out: Monocyte Chemoattractant Protein-1 (MCP1), CCL2 (gene 6347)
- test method notes: BSK_LPS_MCP1: BioMAP Diversity Plus: LPS Assay for Monocyte Chemoattractant Protein-1 (MCP1) Biomarker Activity (AID 2283081)
- measurement conditions: primary human HUVEC with PBMC; actives raise or lower the signal
Activity calls are given as the source filed them. How the source made its calls: active means hit-call score of the fitted dose curve at least 0.9, where 1 is the maximum; inactive means score below 0.9.
Outcome codes: YES for active, NO for inactive

> print(dat)
                                   compound  label.class
1  CCC(=NOC/C=C/Cl)C1=C(O)CC(C2CCOCC2)CC1=O (stereo unspecified)           NO
2  CON=C(C(=O)OC)c1ccccc1CON=C(C)c1cccc(C(F)(F)F)c1          YES
3              CCc1cccc(CC)c1N(COC)C(=O)CCl           NO
4              CCNc1nc(Cl)nc(NC(C)(C)C#N)n1           NO
5  CCOC(=O)COc1cc(-c2nn(C)c(OC(F)F)c2Cl)c(F)cc1Cl           NO
6  CC(COc1ccc(Oc2ccccc2)cc1)Oc1ccccn1 (stereo unspecified)           NO

====

- Read-out: flavin-containing dimethylaniline monooxygenases 3 (FMO3), FMO3 (gene 2328)
- test method notes: LTEA_HepaRG_FMO3: Life Technologies and Expression Analysis (LTEA) Assay for flavin-containing dimethylaniline monooxygenases 3 (FMO3) using HepaRG (AID 2283453)
- measurement conditions: mRNA level, 48 h; actives raise or lower the signal
Active and inactive are the calls of the source. How the source made its calls: active means hit-call score of the fitted dose curve at least 0.9, where 1 is the maximum; inactive means score below 0.9.
Possible outcomes: t (active), f (inactive)

> print(dat)
                                   compound  label.class
1                CSc1nc(NC(C)C)nc(NC(C)C)n1            t
2  CCC(=NOC/C=C/Cl)C1=C(O)CC(C2CCOCC2)CC1=O (centres undefined)            f
3  CSC1=N[C@@](C)(c2ccccc2)C(=O)N1Nc1ccccc1            t
4  CC(Oc1cccc(Cl)c1)C(=O)O (centres undefined)            f

====

- test method notes: ATG_PPRE_CIS: Attagene CIS-FACTORIAL HepG2 Assay for human Peroxisome Proliferator-activated Response Element (PPRE) (AID 2282958)
- measurement conditions: HepG2 PPRE cis-element reporter, Attagene transcription factor profiling; actives raise or lower the signal
Calls of active or inactive are those of the source. The calls were made as follows: active = hit-call score of the fitted dose curve at least 0.9, where 1 is the maximum; inactive = score below 0.9.
Labels: active, inactive

> print(dat)
                                   molecule  label.class
1     CCCOCC(=Nc1ccc(Cl)cc1C(F)(F)F)n1ccnc1       active
2                          CNC(=O)ON=C(C)SC     inactive
3  CCOP(=O)(NC(C)C)Oc1ccc(SC)c(C)c1 (configuration not stated)       active
4  COc1cccc(C(=O)NN(C(=O)c2cc(C)cc(C)c2)C(C)(C)C)c1C     inactive
5                  CCCCOC(=O)c1ccccc1C(=O)O     inactive
6  CCOP(=S)(OCC)OC(Cl)C(Cl)(Cl)Cl (configuration not stated)     inactive
7     CN1COCN(Cc2cnc(Cl)s2)C1=N[N+](=O)[O-]     inactive

====

- Read-out: TIMP metallopeptidase inhibitor 1 (TIMP1), TIMP1 (gene 7076)
- test method notes: BSK_hDFCGF_TIMP1: BioMAP Diversity Plus: hDFCGF Assay for TIMP metallopeptidase inhibitor 1 (TIMP1) Biomarker Activity (AID 2283062)
- measurement conditions: primary human foreskin fibroblasts; actives raise or lower the signal
Active and inactive are the calls of the source. Rule for the calls: active = hit-call score of the fitted dose curve at least 0.9, where 1 is the maximum; inactive = score below 0.9.
Outcome codes: yes for active, no for inactive

> print(dat)
                                   compound  label.class
1      CCOP(=S)(OCC)Oc1ccc([N+](=O)[O-])cc1           no
2                    CCCCSP(=O)(SCCCC)SCCCC           no
3  COP(=O)(OC)OC(Br)C(Cl)(Cl)Br (configuration not stated)          yes
4        CC1(C(=O)Nc2ccc(O)c(Cl)c2Cl)CCCCC1           no
5              CCNc1nc(Cl)nc(NC(C)(C)C#N)n1           no
6                      O=c1ccc(=O)[nH][nH]1           no
7        COP(=O)(OC)SCn1c(=O)oc2cc(Cl)cnc21          yes

====

- Tested on: DIO3 (gene 1735)
- test method notes: CCTE_GLTED_hDIO3: CCTE's human Deiodinase 3 (DIO3) Inhibition Assay, Great Lakes Toxicology and Ecology Division (GLTED) Lab (AID 2284055)
Active and inactive are the calls of the source. How the source made its calls: active means hit-call score of the fitted dose curve at least 0.9, where 1 is the maximum; inconclusive means response in the unintended direction; inactive means score below 0.9.
Classes used: active, inactive

> print(dat)
                                   compound  label.class
1  C#CCC1=C(C)C(OC(=O)C2C(C=C(C)C)C2(C)C)CC1=O (centres undefined)       active
2  CC(C)=CC1C(C(=O)OCN2C(=O)C3=C(CCCC3)C2=O)C1(C)C (centres undefined)     inactive
3              CCc1cccc(CC)c1N(COC)C(=O)CCl       active
4              CCNc1nc(Cl)nc(NC(C)(C)C#N)n1       active

====

- test method notes: CCTE_Mundy_HCI_Cortical_Synap_Neur_Matur_NeuriteSpotCountPerNeuron: CCTE's Synaptogenesis and Neurite Maturation Assay in rat cortical cells for Neurite Spot Count per Neuron Count, Mundy Lab (AID 2284215)
The source made the active and inactive calls. The calls were made as follows: active = hit-call score of the fitted dose curve at least 0.9, where 1 is the maximum; inactive = score below 0.9.
Outcomes: label 1 (active), label 0 (inactive)

> print(dat)
                                    compound  label.class
 1  O=[N+]([O-])c1cc(C(F)(F)F)c(Cl)c([N+](=O)[O-])c1Nc1ncc(C(F)(F)F)cc1Cl      label 1
 2                                 S=C1NCCN1      label 0
 3                        CCCSP(=O)(OCC)SCCC      label 0
 4   CCOP(=S)(OCC)Oc1ccc2c(C)c(Cl)c(=O)oc2c1      label 0
 5          CCOP(=S)(OCC)Oc1cc(C)nc(C(C)C)n1      label 0
 6  CON=C(C(=O)OC)c1ccccc1CON=C(C)c1cccc(C(F)(F)F)c1      label 1
 7  CN(C)[C@@H]1C(=O)C(C(N)=O)=C(O)[C@@]2(O)C(=O)C3=C(O)c4c(O)cccc4[C@@](C)(O)[C@H]3[C@H](O)[C@@H]12      label 1
 8  CSC1=N[C@@](C)(c2ccccc2)C(=O)N1Nc1ccccc1      label 0
 9  CCOC(=O)CC(SP(=O)(OC)OC)C(=O)OCC (stereo unspecified)      label 0
10          CCOP(=O)(OCC)Oc1cc(C)nc(C(C)C)n1      label 0
11                CC(=NC#N)N(C)Cc1ccc(Cl)nc1      label 0

====

- Read-out: NAD(P)H dehydrogenase [quinone] 1 (NQO1), NQO1 (gene 1728)
- test method notes: LTEA_HepaRG_NQO1: Life Technologies and Expression Analysis (LTEA) Assay for NAD(P)H dehydrogenase [quinone] 1 (NQO1) using HepaRG (AID 2283526)
- measurement conditions: mRNA level, 48 h; actives raise or lower the signal
Activity calls are given as the source filed them. How the source made its calls: active means hit-call score of the fitted dose curve at least 0.9, where 1 is the maximum; inactive means score below 0.9.
readout name: outcome

> print(dat)
                                   molecule  endpoint.result
1  COP(=O)(NC(C)=O)SC (configuration not stated)         inactive
2  CCCSP(=O)(OCC)Oc1ccc(Br)cc1Cl (configuration not stated)         inactive
3    Cc1ccn2nc(S(=O)(=O)Nc3c(F)cccc3F)nc2n1         inactive
4     CNc1cnn(-c2cccc(C(F)(F)F)c2)c(=O)c1Cl         inactive
5          CCOP(=S)(OCC)Oc1cc(C)nc(C(C)C)n1         inactive
6  CCc1cccc(C)c1N(C(=O)CCl)C(C)COC (configuration not stated)         inactive
7  CCOP(=O)(SC(C)CC)N1CCSC1=O (configuration not stated)         inactive

Recorded values, source PubChem BioAssay (EPA / NIEHS).
